# Test system: HL-60
# assayOverview: Cytotoxicity against human HL60 cells after 24 hrs by MTT assay
# Format: cell-based
# settings: HL-60, 24 h
pIC50: −log10 of the molar value.
Provide the reported pIC50 of each item.

Quick check: pIC50 of CC(C)CCC[C@@H](C)[C@H]1CCC2=C(CCC[N+](C)(C)[O-])CCC[C@@]21C ? 4.70

Quick check: pIC50 of CC(C)CCC[C@@H](C)[C@H]1CCC2=C(CCCN3CCCCC3)CCC[C@@]21C ? < 4.00

Quick check: pIC50 of C=CCN(C)CCCC1=C2CC[C@H]([C@H](C)CCCC(C)C)[C@@]2(C)CCC1 ? < 4.00

====

measureName: pIC50
Field pIC50 (float): negative decimal logarithm of the concentration in molar.

# query: pIC50 | item CC(C)CCC[C@@H](C)[C@H]1CCC2=C(CCC[N+](C)(C)[O-])CCC[C@@]21C | system: UniProt:P38604 5.60

====

# assayOverview: Inhibition of Trypanosoma cruzi lanosterol synthase expressed in Saccharomyces cerevisiae SMY8[pBJ1.21] using [14C]-(3S)-2,3-oxidosqualene as substrate
measureName: IC50 (nM)
Just the number in nM, nothing appended.

Quick check: IC50 of C=CCN(C)CCCC1=C2CC[C@H]([C@H](C)CCCC(C)C)[C@@]2(C)CCC1 ? 800

Quick check: IC50 of CC(C)CCC[C@@H](C)[C@H]1CCC2=C(CCCN(C)C)CCC[C@@]21C ? 600

Quick check: IC50 of CC(C)CCC[C@@H](C)[C@H]1CCC2=C(CCC[N+](C)(C)[O-])CCC[C@@]21C ? 3000

====

Listed here: compounds with reported IC50 for Lanosterol synthase (Pneumocystis carinii, UniProt Q96WJ0).
Just the number in µM, nothing appended.

# query: IC50 | item C=CCN(C)CCCC1=C2CC[C@H]([C@H](C)CCCC(C)C)[C@@]2(C)CCC1 | system: Lanosterol synthase (Pneumocystis carinii, UniProt Q96WJ0) 0.9

# query: IC50 | item CC(C)CCC[C@@H](C)[C@H]1CCC2=C(CCC[N+](C)(C)[O-])CCC[C@@]21C | system: Lanosterol synthase (Pneumocystis carinii, UniProt Q96WJ0) 15

====

Provide the reported IC50 of each item.
# System: HL-60
# assayOverview: Cytotoxicity against human HL60 cells after 24 hrs by MTT assay
# Format: cell-based
# settings: HL-60, 24 h
Just the number in µM, nothing appended.

# query: IC50 | item CC(C)CCC[C@@H](C)[C@H]1CCC2=C(CCC[n+]3ccccc3)CCC[C@@]21C | system: HL-60 3.5

# query: IC50 | item C=CCN(C)CCCCCCOc1ccc(C(=O)c2ccc(Br)cc2)c(F)c1 | system: HL-60 8

====

Provide the reported IC50 of each item.
# assayOverview: Inhibition of Trypanosoma cruzi lanosterol synthase expressed in Saccharomyces cerevisiae SMY8[pBJ1.21] using [14C]-(3S)-2,3-oxidosqualene as substrate

Quick check: IC50 of CNCCCC1=C2CC[C@H]([C@H](C)CCCC(C)C)[C@@]2(C)CCC1 ? > 20 µM

Quick check: IC50 of CC(C)CCC[C@@H](C)[C@H]1CCC2=C(CCC[n+]3ccccc3)CCC[C@@]21C ? > 20 µM

Quick check: IC50 of CC(C)CCC[C@@H](C)[C@H]1CCC2=C(CCCN3CCCCC3)CCC[C@@]21C ? > 20 µM
